Molecular target: T1, Recombinant human PSGL-1(ECD)-hFc1 (R&D Systems, Cat. 3345-PS) (human, UniProt Q14242 42-305)
T1 construct: Bought; Gln42-Val295 counted on AAC50061; also called PSGL-1-Fc; PSGL-1-hFc1 chimera; not shown: human IgG1 Fc, Pro100-Lys330
T1 sequence: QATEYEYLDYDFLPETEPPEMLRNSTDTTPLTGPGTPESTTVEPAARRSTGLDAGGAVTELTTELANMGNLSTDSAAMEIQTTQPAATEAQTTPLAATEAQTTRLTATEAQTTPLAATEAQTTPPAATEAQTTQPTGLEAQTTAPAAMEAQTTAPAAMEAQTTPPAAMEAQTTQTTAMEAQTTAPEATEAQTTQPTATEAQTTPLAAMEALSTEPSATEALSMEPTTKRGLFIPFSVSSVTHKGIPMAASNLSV
Assay: blocking ELISA vs P-selectin-Fc
Exercise: state measured % max Block for each of the binders provided.

### Prompt Return value of % max Block for input 18F02 (antibody, V domains shown, From mouse immunisation; only variable domains given) VH: QVQLQQPGAELVKPGASVKLSCKASGYTFTSYWMHWVKQRPGQGLEWIGMIHPNSGRTNYNEKFKSKATLTVDKSSSTAYMQLSSLTSEDSAVYYCARSDYWGQGTTLTVSS VL: DIVMTQAAFSNPVTLGTSASISCRSSKSLLHSDGITYLYWFLQRPGQSPQLLIYRMSNLASGVPDRFSGSGSGTDFTLRISRVEAEDVGVYYCAQMLEFPRTFGGGTKLEIK , no commentary.
### Response 100%

# context switch: different binder, same % max Block
### Prompt Return value of % max Block for input 10F01 (antibody, IgG4, V domains shown) VH: EVQLVQSGGGLVQPGGSLRLSCAASGFTFSSYAMSWVRQAPGKGLEWVSALRGGDGGTYHADSVKGRFTISGDSSKNTLYLQMNSLRAEDTAVYYCARRMVGAAYAFDIWGQGTMVTVSS VL: LPVLTQPHSVSESPGKTVTISCTRSSGSIADNFVQWYRQRPGSAPTTVIYEGDQRPSGVPGRFSGSIDSSSNSASLTISGLQTDDEADYYCQSFDSYNRRTHVVFGGGTKLTVL , no commentary.
### Response 100%
